All values here come from patent US11357779B2.

Experiment: Plasma concentration versus time of Compound I and metabolite Compound III in patients dosed QD or BID with Form B of Compound II plus fulvestrant
Type: in vivo, human
Conditions: human, plasma, oral, 100 mg, Cohort 6, 100 mg BID of Form B, Day 29, 0.0 h; read-out: Compound I Concentration, Mean
READOUT LABEL: concentration at 0 h

{"MOLECULAR STRING": "CC(C)N1CCN(c2ccc(Nc3ncc4cc5n(c4n3)C3(CCCCC3)CNC5=O)nc2)CC1", "RESULT": "4.35 ng/mL"}

====

Assay: Plasma concentration versus time of Compound I and metabolite Compound III in patients dosed QD or BID with Form B of Compound II plus fulvestrant
Type: in vivo, human
Conditions: human, plasma, oral, 200 mg, 200 mg QD of Form B, Day 29, 4.0 h, Mean; read-out: Compound I Concentration

{"MOLECULAR STRING": "CC(C)N1CCN(c2ccc(Nc3ncc4cc5n(c4n3)C3(CCCCC3)CNC5=O)nc2)CC1", "concentration at 4 h / ng/mL": 17.5}
